- System: green foxtail (Setaria viridis, SETVI)
- ASSAY INFO: Post-emerge test, greenhouse herbicide activity screening
- Assay type: in vivo
- EXPERIMENTAL PARAMETERS: 63 g ai/ha; post-emerge; 14 days after application; rating scale 0-100
Each entry below lists one item and its recorded Post-emerge Herbicidal Activity SETVI (phytotoxicity rating) value.
Give the figure by itself; no unit, no explanation.

Known Post-emerge Herbicidal Activity SETVI (phytotoxicity rating) results, listed for orientation:
[[record]]
line_notation = "COCC(C)=NNc1c(OC)c(Cl)cc(F)c1-n1c(=O)cc(C(F)(F)F)n(C)c1=O"
meas_value = 20

[[record]]
line_notation = "COc1c(Cl)cc(F)c(-n2c(=O)cc(C(F)(F)F)n(C)c2=O)c1NNC(=O)Oc1ccccc1"
meas_value = 30

[[record]]
line_notation = "COc1c(Cl)cc(F)c(-n2c(=O)cc(C(F)(F)F)n(C)c2=O)c1NN=C(C)C"
meas_value = 70


Requested field: Post-emerge Herbicidal Activity SETVI (phytotoxicity rating). Item: COc1c(Cl)cc(F)c(-n2c(=O)cc(C(F)(F)F)n(C)c2=O)c1NNC(=O)c1ccc2ccccc2c1
40

Next: Cn1c(C(F)(F)F)cc(=O)n(-c2ccc(Cl)cc2/C=C/c2ccc3ccccc3c2)c1=O
0
